I'd appreciate it if you could supply IC50 values for the items below.
assay_system: T1, IL-23-AVI (human, UniProt Q9NPF7 20-189; P29460 23-328)
T1 construct: IL-23 p19 subunit, human; IL-12/IL-23 p40 subunit, human; Captured on streptavidin chips and beads, so biotinylation of the Avi tag is implied; also called Avi-tagged IL-23; recombinant IL-23
T1 sequence (looked up) 1: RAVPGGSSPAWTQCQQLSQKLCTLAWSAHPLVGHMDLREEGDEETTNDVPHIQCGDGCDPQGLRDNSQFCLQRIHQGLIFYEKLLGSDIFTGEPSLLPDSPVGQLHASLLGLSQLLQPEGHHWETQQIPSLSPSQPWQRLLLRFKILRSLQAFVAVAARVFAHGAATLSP
T1 sequence (looked up) 2: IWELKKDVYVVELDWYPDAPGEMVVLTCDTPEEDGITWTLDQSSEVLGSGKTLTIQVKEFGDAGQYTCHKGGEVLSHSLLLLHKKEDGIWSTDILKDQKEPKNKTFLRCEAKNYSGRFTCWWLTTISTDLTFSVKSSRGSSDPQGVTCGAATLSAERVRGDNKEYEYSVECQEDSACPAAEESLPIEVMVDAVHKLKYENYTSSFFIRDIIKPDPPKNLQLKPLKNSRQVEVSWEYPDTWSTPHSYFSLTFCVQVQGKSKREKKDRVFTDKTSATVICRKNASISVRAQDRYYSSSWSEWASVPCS
experiment_description: AlphaScreen or HTRF; TR-FRET; compounds pre-incubated with IL-23R-FLAG 1 h, then IL-23-AVI; Europium-streptavidin and anti-FLAG-allophycocyanin; 25 mM HEPES, 150 mM NaCl, 0.02% Tween 20, 0.1% BSA, pH 7.4, 1% DMSO; n = 1
cond: both partners purified
Ends that are not written are not given here.
Use µM as the unit, but write only the number.

So what does the record say about IC50 for QKITQCVYIIWTYPCLLNDV (selected from a peptide phage library against IL-23; Two cysteines; source: synthetic peptide (CPC Scientific)) [peptide 23–441 (free, chemically synthesized)] ?
5.7

What value of IC50 has been recorded for this entry: LECLYYLRWKVCDN (not fully specified (bridges); cysteine pairing not given here, selected from a peptide phage library against IL-23; Two cysteines; source: synthetic peptide (CPC Scientific)) [peptide 23–447 (free, chemically synthesized)]
24

Sample FTKEIDSWWLSLMSS (selected from a peptide phage library against IL-23; No cysteines, 15 residues; source: synthetic peptide (CPC Scientific)) [peptide 23–437 (free, chemically synthesized)] — what was its IC50?
7

Recorded IC50 of GLRERCVRNYGHEFCQNWYW (selected from a peptide phage library against IL-23; Two cysteines; source: synthetic peptide (CPC Scientific)) [peptide 23–446 (free, chemically synthesized)] , please.
0.59
